Molecular target: Torsin-1A-interacting protein 2 (Homo sapiens) (UniProt Q8NFQ8)
Sequence (Q8NFQ8 whole entry, looked up): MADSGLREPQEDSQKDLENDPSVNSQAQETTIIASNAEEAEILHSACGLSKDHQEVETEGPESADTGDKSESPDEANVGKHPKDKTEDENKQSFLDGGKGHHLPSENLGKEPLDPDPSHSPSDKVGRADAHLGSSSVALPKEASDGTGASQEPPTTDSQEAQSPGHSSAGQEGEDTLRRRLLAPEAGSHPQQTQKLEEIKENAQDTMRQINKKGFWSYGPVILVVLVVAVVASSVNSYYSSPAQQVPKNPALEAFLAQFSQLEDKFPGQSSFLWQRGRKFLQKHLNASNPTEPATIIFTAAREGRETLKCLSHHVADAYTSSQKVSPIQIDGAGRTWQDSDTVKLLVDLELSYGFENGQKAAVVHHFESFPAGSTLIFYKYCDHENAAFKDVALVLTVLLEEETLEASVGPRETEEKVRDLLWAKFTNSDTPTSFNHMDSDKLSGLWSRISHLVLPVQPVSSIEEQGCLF
Assay: LULL1 binders on small-molecule microarray, primary screen, cell lysate, human LULL1 lysate, 635/667 nm fluorescence (AID 1092);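 note: probe is lysate of COS7 cells overexpressing human LULL1; score merges per-feature 667 nm fluorescence with signal-to-noise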
Conditions: hLULL1 lysate binding, 635 nm fluorescence, higher = more signal
MEASURED_QUANTITY: composite z-score

C=C(COC)C(=O)CC[C@@H](OC(=O)c1ccccc1-c1ccccc1C(=O)O)c1ccccc1OCCO tested on Torsin-1A-interacting protein 2 (Homo sapiens) (UniProt Q8NFQ8) gave composite z-score: -0.225

C[C@]1(C(=O)NC2CC2)c2ccccc2C(=O)N(Cc2cc(F)cc(C(F)(F)F)c2)[C@H]1c1ccc(CO)cc1 tested on Torsin-1A-interacting protein 2 (Homo sapiens) (UniProt Q8NFQ8) gave composite z-score: 3.29

O=C1O[C@H](c2ccccc2)[C@H](c2ccccc2)N2[C@H]1[C@@H](C(=O)O)[C@]1(C(=O)Nc3ccc(C#CC4(O)CCCCCC4)cc31)[C@H]2c1ccccc1OCCO tested on Torsin-1A-interacting protein 2 (Homo sapiens) (UniProt Q8NFQ8) gave composite z-score: 2.27

C=C(COC)C(=O)CC[C@H](OC(C)=O)c1ccc(CO)o1 tested on Torsin-1A-interacting protein 2 (Homo sapiens) (UniProt Q8NFQ8) gave composite z-score: 2

COC(=O)[C@@]1(Cc2ccccc2)[C@H]2c3cc(C(=O)N(C)C)n(Cc4nc5ccccc5[nH]4)c3C[C@H]2CN1C(=O)c1ccccc1 tested on Torsin-1A-interacting protein 2 (Homo sapiens) (UniProt Q8NFQ8) gave composite z-score: 3.5

O=C1OCC=C[C@H]2OC34C=CCN(Cn5nnc6ccccc65)C(=O)[C@H]3N(CCO)C(=O)[C@@H]4[C@@H]12 (some centres undefined) tested on Torsin-1A-interacting protein 2 (Homo sapiens) (UniProt Q8NFQ8) gave composite z-score: 2.55

[N-]=[N+]=NCc1ccccc1[C@H]1OC(c2ccc(OCCCO)cc2)=N[C@@]1(CCS(=O)(=O)c1ccccc1)C(=O)O tested on Torsin-1A-interacting protein 2 (Homo sapiens) (UniProt Q8NFQ8) gave composite z-score: 3.11

COC(=O)C[C@H]1O[C@]2(C(=O)N(C)c3ccccc32)[C@@H](C)[C@@H]1[Si](C)(C)c1ccccc1 tested on Torsin-1A-interacting protein 2 (Homo sapiens) (UniProt Q8NFQ8) gave composite z-score: 0.687

[N-]=[N+]=NCc1ccccc1[C@H]1OC(c2ccc(OCCCO)cc2)=N[C@@]1(Cc1ccccc1N=[N+]=[N-])C(N)=O tested on Torsin-1A-interacting protein 2 (Homo sapiens) (UniProt Q8NFQ8) gave composite z-score: 3.31

CC(C)(C)OC(=O)CC[C@@]1(C(N)=O)N=C(c2ccc(OCCCO)cc2)O[C@@H]1c1ccccc1CN=[N+]=[N-] tested on Torsin-1A-interacting protein 2 (Homo sapiens) (UniProt Q8NFQ8) gave composite z-score: 2.86

O=C1O[C@H](c2ccccc2)[C@H](c2ccccc2)N2[C@H]1[C@@H](C(=O)Nc1nc3ccccc3s1)[C@]1(C(=O)Nc3ccccc31)[C@H]2c1ccccc1OCCO tested on Torsin-1A-interacting protein 2 (Homo sapiens) (UniProt Q8NFQ8) gave composite z-score: 3.09

CCCCC(=C=CC[C@H](O)c1cccc(OCCO)c1)C[C@H](O)c1cc(Cl)cc(Cl)c1O tested on Torsin-1A-interacting protein 2 (Homo sapiens) (UniProt Q8NFQ8) gave composite z-score: 1.81

COC(=O)C(CC#Cc1ccc2c(c1)[C@]1(C(=O)N2)[C@H](C(=O)N2CCN(c3ncccn3)CC2)[C@H]2C(=O)O[C@H](c3ccccc3)[C@H](c3ccccc3)N2[C@@H]1c1ccc(O)cc1)C(=O)OC tested on Torsin-1A-interacting protein 2 (Homo sapiens) (UniProt Q8NFQ8) gave composite z-score: 3.25

COC(=O)[C@@]1(Cc2ccc(F)cc2)[C@H]2c3cc(C(=O)N4CCCC4)n(Cc4ccc(C(F)(F)F)nc4)c3C[C@H]2CN1C(=O)c1ccccc1 tested on Torsin-1A-interacting protein 2 (Homo sapiens) (UniProt Q8NFQ8) gave composite z-score: 2.29

###

Assay: MM1S cell viability effects, profiling panel, calcein-AM fluorescence, 48 h, basal (AID 1165);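 note: viability of MM1S multiple myeloma cells under basal unstimulated conditions; test concentration not given here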
Conditions: higher = more signal
Give y when the value for z-score is at least -0.2. Give n when it is less.

Exercise: Decide: z-score of Cc1cccc([C@H]2C[C@H]3C(Br)=C[C@@]2(CO)C(=O)[C@]32CO2)c1 >= -0.2?
Key: n

Exercise: Decide: z-score of CCCCC(=C=CC[C@@H](O)c1ccc(OCCO)cc1)CCO >= -0.2?
Key: n

Exercise: Decide: z-score of CC(=O)NCCCC[C@@H]1NC(=O)[C@H]2C[C@@H](C(=O)O)[C@@H](c3cccc(OCCO)c3)N2C1=O >= -0.2?
Key: y

Exercise: Decide: z-score of COCCOC(=O)N1C(=O)[C@@]2(c3cc(C#CC4=CCCCC4)ccc31)[C@H](C(=O)N1CCCCCCC1)[C@H]1C(=O)O[C@H](c3ccccc3)[C@H](c3ccccc3)N1[C@@H]2c1ccccc1OCCO >= -0.2?
Key: n

Exercise: Decide: z-score of C=CCOC(=O)[C@@H]1[C@H]2C(=O)O[C@H](c3ccccc3)[C@H](c3ccccc3)N2[C@H](c2ccc(OCCOC(=O)[C@H]3C[C@H]4C(=O)N[C@@H](CCCCN(C)C)C(=O)N4[C@H]3c3cccc(OCCO)c3)cc2)[C@@]12C(=O)Nc1ccccc12 >= -0.2?
Key: y

###

Test: CREB reporter modulators without forskolin, primary screen, cell-based, PC12, CRE-LacZ reporter, unstimulated (AID 1145)
Conditions: no forskolin, luminescence, 4.5 h, higher = more signal, called active from +8 up or from −8 down
Give criterion met when the value for z-score is at least 0.2. Give criterion not met when it is less.

Exercise: Decide: z-score of C=CC[C@]1(C(N)=O)N=C(c2ccc(OCCCO)cc2)O[C@H]1c1ccccc1N=[N+]=[N-] >= 0.2?
Key: criterion met

Exercise: Decide: z-score of O=C(CS)NCCCCCCNC(=O)[C@H]1C[C@H]2C(=O)NCC(=O)N2[C@H]1c1cccc(OCCO)c1 >= 0.2?
Key: criterion not met

Exercise: Decide: z-score of COC(=O)C(CC#Cc1ccc2c(c1)[C@]1(C(=O)N2)[C@H](c2ccccc2OCCO)N2[C@H](c3ccccc3)[C@H](c3ccccc3)OC(=O)[C@H]2[C@@H]1C(=O)N1CCN(c2ncccn2)CC1)C(=O)OC >= 0.2?
Key: criterion not met

Exercise: Decide: z-score of COc1ccc(NN2C(C(O)c3ccccc3)C=CC3C(=O)N(C4CCCCC4)C(=O)C32)cc1 (centres undefined) >= 0.2?
Key: criterion not met

Exercise: Decide: z-score of COC(=O)C1(CC(C)C)C=C2C(=C(C)C(=O)C2C)CN1 (centres undefined) >= 0.2?
Key: criterion not met

Exercise: Decide: z-score of COc1ccc(C(=O)Nc2ccc(CN3C(=O)[C@@]4(O[C@@H](CC(=O)N(CCO)Cc5ccccc5)[C@H]([Si](C)(C)c5ccc(OC)cc5)[C@H]4C)c4ccccc43)cc2)cc1 >= 0.2?
Key: criterion not met

Exercise: Decide: z-score of COC(=O)[C@H](Cc1ccccc1)N1CC(C)(OC)O[C@@H](Cc2ccccc2)[C@H]1/C=C/C1CC1 (some centres undefined) >= 0.2?
Key: criterion met

Exercise: Decide: z-score of [N-]=[N+]=Nc1ccccc1C[C@]1(C(=O)N2CCCCC2)N=C(c2ccc(OCCCO)cc2)O[C@H]1c1ccccc1 >= 0.2?
Key: criterion not met

Exercise: Decide: z-score of COCCCNC(=O)[C@@]1(Cc2ccccc2I)c2ccccc2C(=O)N(C2CCCCC2)[C@H]1c1ccc(CO)cc1 >= 0.2?
Key: criterion met

Exercise: Decide: z-score of [N-]=[N+]=NCc1ccccc1C[C@@]1(C(=O)NCCN2CCOCC2)N=C(c2ccc(OCCCO)cc2)O[C@@H]1c1ccccc1 >= 0.2?
Key: criterion met

Exercise: Decide: z-score of C=CCNC(=O)[C@@H]1[C@H]2C(=O)O[C@H](c3ccccc3)[C@H](c3ccccc3)N2[C@H](c2ccc(OCCO)cc2)[C@@]12C(=O)Nc1ccc(C#CCNC(N)=O)cc12 >= 0.2?
Key: criterion not met

Exercise: Decide: z-score of CC[C@@H](O[Si](C#C[Si](C(C)C)(C(C)C)C(C)C)(C(C)C)C(C)C)c1cn([C@H](CO)Cc2ccccc2)nn1 >= 0.2?
Key: criterion not met

Exercise: Decide: z-score of O=C1C2C=CC(C(O)C3CCCCC3)N(Nc3ccccc3F)C2C(=O)N1c1ccccc1 (centres undefined) >= 0.2?
Key: criterion met

Exercise: Decide: z-score of COC(=O)C(CC#Cc1ccc2c(c1)[C@]1(C(=O)N2)[C@H](C(=O)N2CCN(c3ncccn3)CC2)[C@H]2C(=O)O[C@H](c3ccccc3)[C@H](c3ccccc3)N2[C@@H]1c1ccc(O)cc1)C(=O)OC >= 0.2?
Key: criterion not met
